- Tested on: A498 renal
- assay.summary: NCI tumour cell line growth inhibition, 48 h; in the data active means GI50 below about 0.43 µM; inactive means the rest
Classes used: true = active, false = inactive

| test.smiles | class.name |
| --- | --- |
| Cc1cccc2c(=O)c3c(sc12)c(NCCCNCCO)nc1ccccc13 | false |
| COc1ccc(Sc2[nH]c(C=O)c3ccccc23)cc1 | false |
| CCOc1ccc(-c2nc3ccc(-c4nc5ccc(N6CCN(C)CC6)cc5[nH]4)cc3[nH]2)cc1 | true |
| CC(C)CCN(CCC(C)C)CC(=O)Nc1ccc(S(=O)(=O)c2ccc(NC(=O)CN(CCC(C)C)CCC(C)C)cc2)cc1 | false |
| CCCCCCOC(=O)CC1=C(C)/C(=C/c2[nH]c(-c3ccc[nH]3)cc2OC)N=C1C | true |
| O=C(Nc1ccc(I)cc1F)c1cc(Br)ccc1O | true |

The origin of these recorded values is PubChem BioAssay (NCI).
